# test-target: T1, human CD3 (human, UniProt P07766 23-207; P04234 22-171; P09693 23-182)
# T1 construct: whole, on cells; also called hCD3; CD3 on Jurkat cells
# T1 sequence (P07766 23-207, chain 1 of 3): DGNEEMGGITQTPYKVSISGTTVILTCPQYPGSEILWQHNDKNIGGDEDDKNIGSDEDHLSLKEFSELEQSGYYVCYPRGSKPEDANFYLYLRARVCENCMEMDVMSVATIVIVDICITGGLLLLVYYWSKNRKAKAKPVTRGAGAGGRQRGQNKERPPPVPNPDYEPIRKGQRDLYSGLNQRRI
# T1 sequence (P04234 22-171, chain 2 of 3): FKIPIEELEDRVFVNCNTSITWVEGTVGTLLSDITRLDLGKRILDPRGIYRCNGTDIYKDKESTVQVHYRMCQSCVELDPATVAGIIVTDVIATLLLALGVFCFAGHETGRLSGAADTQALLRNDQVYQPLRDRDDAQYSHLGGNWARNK
# T1 sequence (P09693 23-182, chain 3 of 3): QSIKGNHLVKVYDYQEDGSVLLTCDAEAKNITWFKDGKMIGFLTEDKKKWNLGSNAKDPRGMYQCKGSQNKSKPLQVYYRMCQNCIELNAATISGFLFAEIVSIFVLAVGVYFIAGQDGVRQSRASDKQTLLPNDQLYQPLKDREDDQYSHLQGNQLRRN
# experiment-notes: FACS on HEK293T-hCD3mix cells; also: test concentration or dose not given here
parameter: FACS MFI (MFI)
Just the number please, in MFI, no unit attached.

Past entries and their recorded results:
binder	FACS MFI [MFI]
20-E11-E11-C2 (antibody, V domains shown, mouse monoclonal (hybridoma) antibody) VH: EVQLQQSGPEVVKPGASVKISCKASGYTFTDYYMNWVKQSHGKNLEWIGDINPIHGGISSNQKFSDKATLTVDKSSNTAYLELRSLTSEDSAIYYCARRIYYGYDWYFDVWGTGTTVTVSS VL: DIVLSQSPAIMSASPGERVTMTCSASSSVTSRYFFWYQQKPGSSPKLWIYSTSNLASGVPVRFSGSGSGTSYSLTINNMAAEDAATYYCQQYSTSPSTFGAGTKLELK	55200
40-C12-C10-E9 (antibody, V domains shown, mouse monoclonal (hybridoma) antibody) VH: EVQLQLSGPELVKPGASVKMSCKASGYTFSSYVIHWVKQKPGQGLEWIGYINPYNDVIKYNEKFKGKATLTSDKSSSTAYMELSSLTSEDSAVYYCARDSYYSYDGFAYWGQGTLVTVSA VL: QIVLTQSPAIMSASPGEKVTMTCSASSSVSYMHWYQQKSGTSPKRWIYDTSKLASGVPARFSGSGSGTSYSLTISSMEAEDAATYYCQQWSSNPPTFGGGTKVEIK	13100

Next, consider the following binder.
Tell me its FACS MFI given 16-F2-C11-D9 (antibody, V domains shown, mouse monoclonal (hybridoma) antibody) VH: EVQLQQSGPELVKPGASVKMSCKASGYTFTDFNIHWVKQSLGKSLEWIGYINPNDGGSTYNQKFKGKATLTINKSSSSAYMELRSLTSEDSAVYYCAIPFLDSWGQGTSVTVSS VL: TLMMTQSPSSMYASLGERVTITCKASQDINSYLRWYQQKPGKSPKTLIYGASSLVDGVPSRFSGRGSGQDYSLTISSLEYEDMGIYYCLQYDEVPLTFGAGTKLELK as the entry. 80300
